Catalogue of compounds with associated inhibition in vivo at 0.1 mg/kg
# Test system: passive cutaneous reaction mediated by Ig G antibodies
# PROCEDURE DETAILS: Passive cutaneous anaphylaxis of the rat (PCR), Ig G mediated, oral
# Type: in vivo
# CONDITION INFO: 0.1 mg/kg, male Wistar rats, ovalbumin challenge
Answer with the value and then the unit.

Recorded inhibition in vivo at 0.1 mg/kg, per entry:
[
  {
    "COMPOUND": "CCOC(=O)c1cn2c(n1)CN(C(=O)NCCN(CC)CC)c1ccccc1-2 [Example 14]",
    "PROPERTY MEASURED": "inhibition in vivo at 0.1 mg/kg",
    "VALUE REPORTED": "16.8%"
  },
  {
    "COMPOUND": "CCOC(=O)c1cn2c(n1)CN(C(=O)OC)c1ccccc1-2 [Example 9]",
    "PROPERTY MEASURED": "inhibition in vivo at 0.1 mg/kg",
    "VALUE REPORTED": "18.8%"
  },
  {
    "COMPOUND": "COC(=O)N1Cc2nc(C(=O)O)cn2-c2ccccc21 [Example 6]",
    "PROPERTY MEASURED": "inhibition in vivo at 0.1 mg/kg",
    "VALUE REPORTED": "19%"
  },
  {
    "COMPOUND": "CCOC(=O)c1cn2c(n1)CN(C(C)=O)c1ccccc1-2 [Example 7]",
    "PROPERTY MEASURED": "inhibition in vivo at 0.1 mg/kg",
    "VALUE REPORTED": "32.5%"
  }
]

Would you kindly look at the next entry?
Challenge: What value of inhibition in vivo at 0.1 mg/kg has been recorded for this entry: CCOC(=O)c1cn2c(n1)CN(C(=O)OCC)c1ccccc1-2 [Example 3]
Response given: 26.3%
